B1: TPR t1 (parent)
chain: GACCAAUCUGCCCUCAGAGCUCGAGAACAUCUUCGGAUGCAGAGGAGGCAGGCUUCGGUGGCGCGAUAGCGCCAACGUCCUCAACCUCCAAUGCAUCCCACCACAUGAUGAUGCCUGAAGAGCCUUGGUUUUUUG

- Variants of: B1
- protocol notes: polymerase ribozyme fitness, log enrichment relative to wild type (log ratio); higher = more active; in vitro selection for triplet polymerase activity
# polymerase ribozyme fitness (log ratio) annotations
quantity kind: polymerase ribozyme fitness (log ratio)

mutant_label="C3A C76G G93A C115G" quantity_kind="polymerase ribozyme fitness (log ratio)" result=-5.76
mutant_label="A26C A43C A46C C56G C86A A90G C123G" quantity_kind="polymerase ribozyme fitness (log ratio)" result=-6.74
mutant_label="C13A G42C A66C C99U C101U C114U G127U" quantity_kind="polymerase ribozyme fitness (log ratio)" result=-6.24
mutant_label="U96A C123U" quantity_kind="polymerase ribozyme fitness (log ratio)" result=-0.01
mutant_label="A74U G113A" quantity_kind="polymerase ribozyme fitness (log ratio)" result=-1.11
mutant_label="G47A U54C U59A C94G A118C U130C" quantity_kind="polymerase ribozyme fitness (log ratio)" result=-5.44
mutant_label="C104U U130G" quantity_kind="polymerase ribozyme fitness (log ratio)" result=-0.0774
mutant_label="A29C A37C C53A G110U" quantity_kind="polymerase ribozyme fitness (log ratio)" result=-5.11
mutant_label="G48U U59A U78G U116A" quantity_kind="polymerase ribozyme fitness (log ratio)" result=-3.29
mutant_label="C53A U55A C88U C89U" quantity_kind="polymerase ribozyme fitness (log ratio)" result=-0.643
